- Assay Notes: Partition equilibrium in the presence of surfactants (TBA, CTA, TMA)
- Type: physicochemical
- Run Parameters: CTA1000 (1000 mg · L^−1)
Measurement Type: Migration

Q) Requested read-out: Migration. Entry: O=C(O)c1ccccc1
A) 66.3 %, mol

Q) What value of Migration has been recorded for this entry: O=C(O)CCCCC1CCCCC1
A) 38.9 %, mol

Q) Return reported Migration; argument: O=C(O)CCCCc1ccccc1
A) 52.6 %, mol

Q) Look up Migration for this compound: CCCCC(=O)O
A) 85.0 %, mol

---

I'd appreciate it if you could supply Migration values for the items below.
- Assay Notes: Partition equilibrium with addition of calcium and strontium salts to the aqueous phase
- Format: physicochemical
- Run Parameters: Calcium 400 mg · L^−1; salinity 3.5%

Q) Entry O=C(O)C(C1CCCCC1)C1CCCCC1 : reported Migration = ?
A) 20.7 %, mol

Q) Given CCCCC(=O)O , state its recorded Migration.
A) 90.0 %, mol

Q) Give the measured Migration of O=C(O)CCCCC1CCCCC1 .
A) 5.5 %, mol

Q) Need Migration, item O=C(O)CCCCc1ccccc1
A) 5.5 %, mol

Q) Tell me the measured Migration of O=C(O)c1ccccc1 , please.
A) 80.0 %, mol

From: patent US20250231157A1
